Provide the reported inhibition at 1 µM of each item.
biological target: recombinant human PAI-1 (Homo sapiens); assay: Test Example 2: Human PAI-1 Inhibitory Activity (pH 7.4 HEPES buffer, 10 minutes incubation with two-chain tPA); format: biochemical; design: purchased Molecular Innovations, Inc; conditions: read-out: Inhibition Rate of PAI-1 Activity (%)
Numbers only; they are read as %.

Looking for the measured inhibition at 1 µM of `CC(C)(C)c1ccc(COc2ccc(-c3ccc(OC(F)(F)F)cc3)cc2C(=O)O)cc1` , can you help? 14

Data request, read-out inhibition at 1 µM, for `CC(C)(C)c1ccc(Oc2cc(-c3ccc(C#N)cc3)ccc2OCC(=O)O)cc1` 11

Which measured inhibition at 1 µM value corresponds to `O=C(O)C(=O)N(CCCCc1ccccc1)c1cc(-c2ccc(OC(F)(F)F)cc2)ccc1OCCCCc1ccccc1` ? 91

# lookup: inhibition at 1 µM of `CC(C)(C)c1ccc(Oc2cccc(-c3ccc(OC(F)(F)F)cc3)c2OCC(=O)O)cc1` 26

Give its inhibition at 1 µM value. Item: `CCCCCCCCOc1ccc(-c2ccc(OC(F)(F)F)cc2)cc1N(CCCCc1ccccc1)C(=O)C(=O)O` 87

I am curious: what inhibition at 1 µM value has been reported for `O=C(O)C(=O)N(CCCCc1ccccc1)c1cc(-c2ccc(OC(F)(F)F)cc2)ccc1N1CCCCC1` ? 66

# input compound: CCCCC(Oc1cc(-c2ccc(OC(F)(F)F)cc2)ccc1OCCCCc1ccc(F)cc1)C(=O)O (centres unmarked) ; wanted: its inhibition at 1 µM 66

---

target: recombinant human PAI-1 (Homo sapiens, UniProt P05121); assay: Test Example 2: Human PAI-1 Inhibitory Activity (pH 7.4 HEPES buffer, 10 minutes incubation with two-chain tPA); format: biochemical; design: purchased Molecular Innovations, Inc; details: read-out: Inhibition Rate of PAI-1 Activity (%)
Sequence (P05121 24-402): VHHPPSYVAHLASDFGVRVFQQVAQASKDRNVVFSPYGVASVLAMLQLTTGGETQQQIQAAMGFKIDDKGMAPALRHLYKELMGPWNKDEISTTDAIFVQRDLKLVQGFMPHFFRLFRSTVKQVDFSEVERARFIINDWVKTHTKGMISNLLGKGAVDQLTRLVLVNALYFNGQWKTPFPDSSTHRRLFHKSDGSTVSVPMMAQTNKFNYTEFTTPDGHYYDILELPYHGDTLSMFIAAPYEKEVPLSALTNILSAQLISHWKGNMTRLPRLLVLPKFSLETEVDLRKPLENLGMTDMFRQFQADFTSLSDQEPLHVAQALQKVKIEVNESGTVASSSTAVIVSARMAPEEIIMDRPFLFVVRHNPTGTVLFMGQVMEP
Give measured inhibition at 0.1 µM for each item. Keep answers brief.
State the answer as a number, implicitly in %.

Query (compound): O=C(O)CCc1ccc(-c2ccc(OC(F)(F)F)cc2)cc1Oc1ccc(OC(F)(F)F)cc1 [Compound 479] ; field requested: inhibition at 0.1 µM 17

What value of inhibition at 0.1 µM has been reported for the following compound? CC(C)(C)c1ccc(CN(C(=O)C(=O)O)c2cccc(Oc3ccc(OC(F)(F)F)cc3)c2)cc1 [Compound 172] 4

Which inhibition at 0.1 µM is reported for this compound? CC(C)(C)c1ccc(CN(C(=O)C(=O)O)c2ccc(-c3ccc(OC(F)(F)F)cc3)cc2)cc1 [Compound 129] 1

So what does the record say about inhibition at 0.1 µM for Cc1cc(C)cc(COc2ccc(-c3ccc(OC(F)(F)F)cc3)cc2N(CCCCc2ccccc2)C(=O)C(=O)O)c1 [Compound 662] ? 18

Please look up its inhibition at 0.1 µM: CCCCC(Oc1ccc(-c2ccc(OC(F)(F)F)cc2)cc1Oc1ccc(C(C)(C)C)cc1)C(=O)O (stereo not shown) [Compound 305] 6

Value lookup for inhibition at 0.1 µM; key = CCCCCOc1ccc(-c2ccc(F)cc2)cc1N(CCCCc1ccccc1)C(=O)C(=O)O [Compound 359] 1

Return reported inhibition at 0.1 µM; argument: CC(C)(C)c1ccc(COc2cccc(Oc3ccc(OC(F)(F)F)cc3)c2CCC(=O)O)cc1 [Compound 86] 0

---

Target: recombinant human PAI-1 (Homo sapiens, UniProt P05121)
Assay: Test Example 2: Human PAI-1 Inhibitory Activity (pH 7.4 HEPES buffer, 10 minutes incubation with two-chain tPA)
Assay type: biochemical
Parameters: purchased Molecular Innovations, Inc
Details: concentration that inhibits 50 % of the human PAI-1 activity, calculated from the inhibition rates of Test Example 2; read-out: IC50
Experimental: 0.1 M HEPES, 0.1 M NaCl. 1 mM EDTA. 0.1 % Polyethylene glycol 8,000 (Hampton Research Corporation), 2 mM Dimethyldecylphoshine oxide [Apo-10] (Fluka Corporation)
Value kind: IC50 (nM)
Write it as a number; the unit nM goes unstated.

Record `CCCCCCCc1ccc(-c2ccc(OC(F)(F)F)cc2)cc1N(CCCCc1ccccc1)C(=O)C(=O)O` : what is its IC50 with recombinant human PAI-1 (Homo sapiens, UniProt P05121)? 690

---

For each record, write down the corresponding inhibition at 0.1 µM.
biological target: recombinant human PAI-1 (Homo sapiens, UniProt P05121); test: Test Example 2: Human PAI-1 Inhibitory Activity (pH 7.4 HEPES buffer, 10 minutes incubation with two-chain tPA); type: biochemical; design: purchased Molecular Innovations, Inc; details: read-out: Inhibition Rate of PAI-1 Activity (%)
Number in %, nothing else.

Request the reported inhibition at 0.1 µM associated with `CCCCCOc1ccc(-c2ccc(OCC(=O)O)c(Oc3ccc(C(C)(C)C)cc3)c2)cc1` 0

Sample `Cc1cc(C)cc(Oc2cc(-c3ccc(C(C)(C)C)cc3)ccc2/C=C/C(=O)O)c1` — what was its inhibition at 0.1 µM? 9

Form field: reported inhibition at 0.1 µM of CC(Oc1cc(-c2ccc(OC(F)(F)F)cc2)ccc1CCC(=O)O)c1ccccc1 (stereo not shown) 12

Entry under review: `CC(C)(C)[C@H]1CC[C@@H](N(C(=O)C(=O)O)c2ccc(-c3ccc(OC(F)(F)F)cc3)cc2)CC1` . Reported inhibition at 0.1 µM? 0

What measured inhibition at 0.1 µM goes with `O=C(O)CCCCCCCCOc1ccc(-c2ccc(OC(F)(F)F)cc2)cc1N(CCCCc1ccccc1)C(=O)C(=O)O` ? 4

Name the recorded inhibition at 0.1 µM for `CCCCCCCCOc1ccc(-c2ccc(OC(F)(F)F)cc2)cc1N(CCCCc1ccccc1)C(=O)C(=O)O` . 6

What value of measured inhibition at 0.1 µM is listed for `CC(C)(C)c1ccc(Oc2cc(-c3ccc4ccccc4c3)ccc2CCC(=O)O)cc1` ? 3

---

Can you tell me inhibition at 0.1 µM for the items I'm about to list?
molecular target: recombinant human PAI-1 (Homo sapiens, UniProt P05121); assay: Test Example 2: Human PAI-1 Inhibitory Activity (pH 7.4 HEPES buffer, 10 minutes incubation with two-chain tPA); format: biochemical; design: purchased Molecular Innovations, Inc; details: read-out: Inhibition Rate of PAI-1 Activity (%)
Write the value in % as a bare number.

Requested field: inhibition at 0.1 µM. Item: `CCCCCOc1ccc(-c2ccc(OC(F)(F)F)cc2)cc1N(CCCCc1ccccc1)C(=O)C(=O)O` 0

Entry under review: CCCCC(Oc1cc(Oc2ccc(C(C)(C)C)cc2)cc(-c2ccc(OC(F)(F)F)cc2)c1)C(=O)O (stereo not drawn) . Reported inhibition at 0.1 µM? 10

Given the entry `Cc1ccc(-c2ccc(OCC(=O)O)c(Oc3ccc(C(C)(C)C)cc3)c2)cc1` , report its measured inhibition at 0.1 µM. 0

Entry `O=C(O)C(=O)N(CCCCc1ccccc1)c1cc(-c2ccc(OC(F)(F)F)cc2)ccc1Oc1ccccc1` has what inhibition at 0.1 µM? 5

Given the compound `CC(C)[C@@H]1CC[C@@H](C)C[C@H]1Oc1ccc(-c2ccc(OC(F)(F)F)cc2)cc1N(CCCCc1ccccc1)C(=O)C(=O)O` , what is its reported inhibition at 0.1 µM? 6

inhibition at 0.1 µM for `CC(C)(Oc1c(Oc2ccc(C(C)(C)C)cc2)cccc1-c1ccc(OC(F)(F)F)cc1)C(=O)O` ? 0

Entry `CCCCCOc1ccc(-c2cccc(C)c2)cc1N(CCCCc1ccccc1)C(=O)C(=O)O` has what inhibition at 0.1 µM? 14

What value of inhibition at 0.1 µM has been recorded for this entry: `CC(C)(C)c1ccc(COc2ccc(-c3ccc(OC(F)(F)F)cc3)cc2CCC(=O)O)cc1` 2

Any idea what inhibition at 0.1 µM was measured for CCCCCCOc1ccc(-c2ccc(OC(F)(F)F)cc2)cc1OC(CCCCCC)C(=O)O (stereo not drawn) ? 7

Consider the compound `CC(C)(C)c1cccc(Oc2cc(-c3ccc(OC(F)(F)F)cc3)ccc2CCC(=O)O)c1` and give its measured inhibition at 0.1 µM. 0

# query: inhibition at 0.1 µM of entry CCCCC(Oc1ccc(-c2cccc(C)c2)cc1Oc1ccc(C(C)(C)C)cc1)C(=O)O (stereo not drawn) 3

What does the data say about its inhibition at 0.1 µM? Entry: `Cc1ccc(N(Cc2ccc(C(C)(C)C)cc2)C(=O)C(=O)O)cc1-c1ccc(OC(F)(F)F)cc1` 0

Recorded inhibition at 0.1 µM for `CC(C)(C)c1ccc(Oc2cc(-c3ccc(OC(F)(F)F)cc3)ccc2NCC(=O)O)cc1` , please? 1

I am curious: what inhibition at 0.1 µM value has been reported for `CC(C)(Oc1cc(-c2ccc(OC(F)(F)F)cc2)ccc1OCCCCc1ccccc1)C(=O)O` ? 0

Fill in the blank: the reported inhibition at 0.1 µM of `CCC(CC)Oc1ccc(-c2ccc(OC(F)(F)F)cc2)cc1N(Cc1ccc(C(C)(C)C)cc1)C(=O)C(=O)O` is ____. 9
